TEST PROTOCOL: Cytotoxicity against human KE-97 cells after 72 hrs by CellTitre-Glo luminescent cell viability assay
Assay type: functional, cell-based
CONDITION DESCRIPTION: KE-97, 72 h
pIC50: −log10 of the molar value.
Reported pIC50 values for a set of compounds

STRUCTURE SMILES	pIC50
COc1cc(/C=C/C(=O)O[C@H]2[C@H](O)C[C@@]3(C)[C@@H](CC[C@]4(C)[C@@H]3CC=C3[C@@H](O)[C@@]5(CCC(C)(C)C5)CC[C@]34C)[C@]2(C)CO)ccc1O	< 5.00
CC1(C)CC[C@]2(CC[C@]3(C)C(=CC[C@@H]4[C@@]5(C)C[C@@H](O)[C@H](OC(=O)/C=C/c6ccc(O)cc6)[C@@](C)(CO)[C@@H]5CC[C@]43C)[C@H]2O)C1	< 5.00
CC1(C)CC[C@]2(CC[C@]3(C)C(=CC[C@@H]4[C@@]5(C)C[C@@H](O)[C@H](O)[C@@](C)(CO)[C@@H]5CC[C@]43C)[C@H]2O)C1	< 5.00

---

TEST PROTOCOL: Cytotoxicity against human KE-97 cells after 72 hrs by CellTitre-Glo luminescent cell viability assay
Assay type: functional, cell-based
CONDITION DESCRIPTION: KE-97, 72 h

MOLECULE	IC50
COc1cc(/C=C/C(=O)OC[C@@]2(C)[C@@H]3CC[C@]4(C)[C@H](CC=C5[C@@H](O)[C@]6(CCC(C)(C)C6)CC[C@]54C)[C@@]3(C)C[C@@H](O)[C@@H]2O)ccc1O	> 10 µM
CC1(C)CC[C@@]2(CC[C@]3(C)C(=CC[C@@H]4[C@@]5(C)C[C@@H](O)[C@H](O)[C@@](C)(COC(=O)/C=C/c6ccc(O)c(O)c6)[C@@H]5CC[C@]43C)[C@H]2O)C1 (relative stereo)	> 10 µM
CC1(C)CC[C@@]2(CC[C@]3(C)C(=CC[C@@H]4[C@@]5(C)C[C@@H](O)[C@H](O)[C@@](C)(COC(=O)/C=C/c6ccc(O)cc6)[C@@H]5CC[C@]43C)[C@H]2O)C1	> 10 µM
COc1cc(/C=C\C(=O)O[C@H]2[C@H](O)C[C@@]3(C)[C@@H](CC[C@]4(C)[C@@H]3CC=C3[C@@H](O)[C@@]5(CCC(C)(C)C5)CC[C@]34C)[C@]2(C)CO)ccc1O	> 10 µM
CC1(C)CC[C@@]2(CC[C@]3(C)C(=CC[C@@H]4[C@@]5(C)C[C@@H](O)[C@H](OC(=O)/C=C/c6ccc(O)c(O)c6)[C@@](C)(CO)[C@@H]5CC[C@]43C)[C@H]2O)C1 (relative stereo)	3 µM
